# SUBJECT OF TEST: Oxytocin receptor (Homo sapiens)
# ASSAY DETAILS: human OXTR potentiators, primary screen, fluorescence, CHO-OTR cells, Fluo-8 calcium (AID 2445);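 note: 100% uses oxytocin at 75 nM as the full agonist control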
# MEASUREMENT CONTEXT: Fluo-8 calcium fluorescence, potentiator mode, at 3 µM, active compounds read high, 0% = oxytocin EC15, 100% = EC100
About 200 (0.062%) of roughly 320,000 compounds were called active. Many of the other results were omitted from the sample, so actives are more common in it than they were.
Reported activation values for the following molecules.
ATTRIBUTE MEASURED: activation

1) Cc1cc(C)cc(N(CC(=O)NC2CCCC2)C(=O)CCC(=O)Nc2cc(C)on2)c1 ... -12.7% (inactive)
2) Cc1ccc(CS(=O)(=O)CCC(=O)NC2CC2)cc1 ... 0.82% (inactive)
3) CN(C)c1cc(N)c2ccccc2n1 (tested in a mixture with another compound) ... -14.8% (inactive)
4) Cc1nc2cc(NCc3cccs3)ccc2n1C ... -14.8% (inactive)
5) O=C(Nc1ccccc1C(=O)N1CCOCC1)c1ccc(Cl)cc1 ... -4.35% (inactive)
6) COc1cc(NC(=O)COC(=O)c2ccc([N+](=O)[O-])s2)cc(OC)c1OC ... -5.07% (inactive)
7) CCCCCCNS(=O)(=O)c1ccccc1Br ... -3.1% (inactive)
8) COc1cccc(-n2c(=O)c3c(C)c(C(=O)N(C)C)sc3n(CC(=O)NCCc3ccc(OC)c(OC)c3)c2=O)c1 ... -15.7% (inactive)
9) O=C(OCCN1C(=O)c2ccccc2C1=O)[C@@H]1CC(O)CN1S(=O)(=O)c1ccccc1[N+](=O)[O-] (stereo partly specified) ... -5.05% (inactive)
10) Cc1nc(CNS(=O)(=O)c2ccc(Oc3ccccc3)cc2)cs1 ... -14.3% (inactive)
11) Cc1c(C)c2c(OCC(=O)N[C@@H](C(=O)O)c3ccccc3)cc3c(c2oc1=O)CCC(C)(C)O3 ... 0.86% (inactive)
12) Cc1ccc(N2C(=O)SC(N(CC(=O)O)c3ccc(C)cc3)C2=O)cc1 (stereo unspecified) ... -15.1% (inactive)
13) CCCCNc1c(-c2ccc(OC)c(Sc3ccc(OC)cc3)c2)nc2ccc(Cl)cn12 ... 13.1% (active)
14) O=C(Nn1cc(C(=O)N2CCN(c3ccccc3F)CC2)c2ccccc2c1=O)c1cnccn1 ... -16.9% (inactive)
15) NC(=O)C1CC(=O)N(c2ccc(OCC(=O)NCc3ccccc3)cc2)C1 (stereo unspecified) ... 2.9% (inactive)
16) Cc1nc(-c2ccc(F)cc2)c(CC(=O)N2CCN(S(=O)(=O)c3ccc(F)cc3)CC2)s1 ... -7.74% (inactive)
17) CCCCCCSc1ccc([C@@H]2[C@@H]3C(=O)N(CC)C(=O)[C@@H]3[C@]3(C(=O)OC)CCCCN23)cc1OC ... -12.2% (inactive)
18) Cc1ccc(S(=O)(=O)NC2(C(F)(F)F)NC(=O)N(CCc3ccccc3)C2=O)cc1 (stereo unspecified) ... -18.6% (inactive)
19) O=C(Nc1ccc(F)cc1F)N1CCCN(CCOc2ccccc2)CC1 ... -5.95% (inactive)
20) Cc1cc(NC(=O)Nc2c[nH]c(=O)[nH]c2=O)ccc1Br ... -3.04% (inactive)
21) CS(=O)(=O)Nc1ccccc1C(=O)OCC(=O)NC1CC1 ... -5.14% (inactive)
22) [O-][n+]1ccc(OCc2ccccc2)cc1 ... -0.76% (inactive)
23) CCCCn1c(N)c(N2CCOCC2)c(=O)n(CC(=O)NCCc2ccccc2)c1=O ... 14.8% (active)
24) O=C(COC(=O)c1cc(S(=O)(=O)N2CCOCC2)ccc1Cl)NCCc1ccccc1 ... -5.23% (inactive)
25) CCS(=O)(=O)c1ccc2c(c1)N(S(=O)(=O)c1ccccc1)CC(C(=O)O)O2 (stereo unspecified) ... -11.9% (inactive)
26) COc1cc(/C=C2\SC(=O)NC2=O)ccc1OCc1ccc(Cl)nc1 ... -15.2% (inactive)
27) O=C(CN(Cc1ccccc1)C(=O)CCC(=O)Nc1ccccn1)NCCc1ccccc1 ... -8.23% (inactive)
28) Cc1ccc(-c2nnc(-n3nnc4ccccc43)c3ccccc23)cc1 ... -11.2% (inactive)
29) CCOC(=O)C1=C(N)N2C(=O)C(C)SC2=C(C(=O)OCC)C1c1cc(OC)c(OC)c(OC)c1 (stereo unspecified) ... 3.06% (inactive)
30) Cc1ccccc1-c1cc(C(=O)NCc2cccs2)n(CC2CC(c3cccnc3)=NO2)n1 (stereo unspecified) ... -4.56% (inactive)
31) CC1(C)CC(=O)CC2(C1)NCC(c1ccccc1Cl)c1c2[nH]c2ccccc12 (stereo unspecified) ... -23.6% (inactive)
32) CCCCCCSc1ccc(-c2nc3ccc(Cl)cn3c2NCc2ccccc2)cc1 ... -4.96% (inactive)
33) O=C(NCc1ccccc1)C1CCN(C(=O)Cc2ccccc2)CC1 ... -0.95% (inactive)
34) Cc1ccc(OCc2nnc(SC3CCc4ccccc4C3=O)n2C)cc1 (stereo unspecified) ... -7.17% (inactive)
35) C[C@H](NC(=O)c1nc[nH]c1C(=O)N[C@@H](C)C(=O)OC(C)(C)C)C(=O)OC(C)(C)C ... -3.66% (inactive)
36) CCC(=O)N1CCN=C1SCc1ccc(F)cc1 ... -4.47% (inactive)
37) COCCCNC(=O)CSc1nc2ccc(N3CCOCC3)cc2c(=O)n1CCc1ccccc1 ... -1.26% (inactive)
38) O=C(COC(=O)c1cc(=O)[nH]c2ccccc12)Nc1nc(-c2cccc(Br)c2)cs1 ... 2.69% (inactive)
39) Cc1noc(/C=C/c2ccco2)c1S(=O)(=O)N1CCC(C(=O)Nc2ccc(Cl)cn2)CC1 ... -2.32% (inactive)
40) CC1(C)CC(=O)C=C(c2ccc3ncccc3c2)C1 ... -1.73% (inactive)
41) O=C(C1CCN(C2CCN(Cc3cccc4c3OCO4)CC2)CC1)N1CCOCC1 ... -0.07% (inactive)
